B1: Cyclin-F, residues 28 to 80; numbered along this chain, P41002 (parent)
chain: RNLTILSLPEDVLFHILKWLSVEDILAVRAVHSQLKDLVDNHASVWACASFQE

- Variants of: B1
- test.summary: abundance fitness (aPCA) (normalised: wild type 0, dead -1); higher = more abundant; growth selection in yeast, the domain comes from the species named
- test.context: Homo sapiens
Entry class follows abundance fitness: band A = under -0.7, band B = from -0.7 up to -0.5, band C = -0.5 and over

Here are 3 variants together with their reported answers.
In: Any idea which band `D40V` is in?
Out: band B

In: Consider next the variant `I25H` in the same way.
Out: band A

In: Can you handle `L38G` next?
Out: band B

Attention now turns to another entry.
In: Band for the recorded abundance fitness of `P9A` ?
Out: band A
